- PROTOCOL_DETAILS: activity coefficient (dimensionless); of the first substance listed, at infinite dilution; xn = mol fraction of the nth substance listed
- CONDITION_SET: 308.15 K; Liquid; Chromatography; x1 = 0
PROPERTY_LABEL: activity coefficient

Sample CCCC(C)=O [pentan-2-one] + CCn1cc[n+](C)c1.N#C[B-](C#N)(C#N)C#N ; activity coefficient observed: 0.816

For record CC(C)=O [acetone] + CCn1cc[n+](C)c1.N#C[B-](C#N)(C#N)C#N the listed activity coefficient is 0.443

====

- PROTOCOL_DETAILS: activity coefficient (dimensionless); of the first substance listed, at infinite dilution; xn = mol fraction of the nth substance listed
- CONDITION_SET: 328.15 K; Liquid; Chromatography; x1 = 0
Output t for records whose activity coefficient is lower than 20, f for records at or above 20.

Solved cases (5 shown):
MOLECULE: CCCCCCCC [octane] + CCn1cc[n+](C)c1.N#C[B-](C#N)(C#N)C#N
CATEGORY: f
//
MOLECULE: CCC(C)(C)OC [2-methoxy-2-methylbutane] + CCn1cc[n+](C)c1.N#C[B-](C#N)(C#N)C#N
CATEGORY: t
//
MOLECULE: CCCCO [butan-1-ol] + CCn1cc[n+](C)c1.N#C[B-](C#N)(C#N)C#N
CATEGORY: t
//
MOLECULE: C1=CCCCC1 [cyclohexene] + CCn1cc[n+](C)c1.N#C[B-](C#N)(C#N)C#N
CATEGORY: t
//
MOLECULE: CCCCCC [hexane] + CCn1cc[n+](C)c1.N#C[B-](C#N)(C#N)C#N
CATEGORY: f

Now consider the entry below.
Prompt: # strict comparison: is reported activity coefficient < 20? input = CC1CCCCC1 [methylcyclohexane] + CCn1cc[n+](C)c1.N#C[B-](C#N)(C#N)C#N
Response: t

====

- PROTOCOL_DETAILS: activity coefficient (dimensionless); of the first substance listed, at infinite dilution; xn = mol fraction of the nth substance listed
- CONDITION_SET: 318.15 K; Liquid; Chromatography; x1 = 0
Decision: activity coefficient compared against 1; not below it gives MET, below it gives NOT MET.

A selection of reference data follows.
COMPOUND: c1ccccc1 [benzene] + CCn1cc[n+](C)c1.N#C[B-](C#N)(C#N)C#N
CATEGORY: MET
--
COMPOUND: CCCC(C)=O [pentan-2-one] + CCn1cc[n+](C)c1.N#C[B-](C#N)(C#N)C#N
CATEGORY: NOT MET
--
COMPOUND: Cc1ccccc1C [1,2-dimethylbenzene] + CCn1cc[n+](C)c1.N#C[B-](C#N)(C#N)C#N
CATEGORY: MET
--
COMPOUND: CCCC(=O)CC [3-hexanone] + CCn1cc[n+](C)c1.N#C[B-](C#N)(C#N)C#N
CATEGORY: MET
--
COMPOUND: CCOCC [diethyl ether] + CCn1cc[n+](C)c1.N#C[B-](C#N)(C#N)C#N
CATEGORY: MET

Prompt: Is reported activity coefficient greater than or equal to 1 here: CC(C)=O [acetone] + CCn1cc[n+](C)c1.N#C[B-](C#N)(C#N)C#N
Response: NOT MET

Prompt: Reported activity coefficient at or above 1? CC1CCCCC1 [methylcyclohexane] + CCn1cc[n+](C)c1.N#C[B-](C#N)(C#N)C#N
Response: MET

====

Quick reference for activity coefficient among some compounds
- PROTOCOL_DETAILS: activity coefficient (dimensionless); of the first substance listed, at infinite dilution; xn = mol fraction of the nth substance listed
- CONDITION_SET: 298.15 K; Liquid; Chromatography; x1 = 0
The answer should be a number; do not append a unit.

Example entries and their recorded answers appear below.
COMPOUND: C=CCCCCC [1-heptene] + CCn1cc[n+](C)c1.N#C[B-](C#N)(C#N)C#N
PROPERTY_LABEL: activity coefficient
OBSERVED_VALUE: 22
//
COMPOUND: C#CCCCC [1-hexyne] + CCn1cc[n+](C)c1.N#C[B-](C#N)(C#N)C#N
PROPERTY_LABEL: activity coefficient
OBSERVED_VALUE: 3.77
//
COMPOUND: CCCCO [butan-1-ol] + CCn1cc[n+](C)c1.N#C[B-](C#N)(C#N)C#N
PROPERTY_LABEL: activity coefficient
OBSERVED_VALUE: 2.72
//
COMPOUND: CCCCCC [hexane] + CCn1cc[n+](C)c1.N#C[B-](C#N)(C#N)C#N
PROPERTY_LABEL: activity coefficient
OBSERVED_VALUE: 33.8
//
COMPOUND: CCCCCCCCC [nonane] + CCn1cc[n+](C)c1.N#C[B-](C#N)(C#N)C#N
PROPERTY_LABEL: activity coefficient
OBSERVED_VALUE: 131
//
COMPOUND: C#CCCCCCC [1-octyne] + CCn1cc[n+](C)c1.N#C[B-](C#N)(C#N)C#N
PROPERTY_LABEL: activity coefficient
OBSERVED_VALUE: 8.66

Record C1CCCCC1 [cyclohexane] + CCn1cc[n+](C)c1.N#C[B-](C#N)(C#N)C#N , field activity coefficient: 16.7

Reported activity coefficient of CCC(C)(C)OC [2-methoxy-2-methylbutane] + CCn1cc[n+](C)c1.N#C[B-](C#N)(C#N)C#N : 4.15

response.value for C1CCOC1 [tetrahydrofuran] + CCn1cc[n+](C)c1.N#C[B-](C#N)(C#N)C#N (field: activity coefficient) = 0.686

====

- PROTOCOL_DETAILS: activity coefficient (dimensionless); of the first substance listed, at infinite dilution; xn = mol fraction of the nth substance listed
- CONDITION_SET: 358.15 K; Liquid; Chromatography; x1 = 0
PROPERTY_LABEL: activity coefficient

# molecule CCCC(=O)CC [3-hexanone] + CCn1cc[n+](C)c1.N#C[B-](C#N)(C#N)C#N ; its activity coefficient = 1.17

====

- PROTOCOL_DETAILS: activity coefficient (dimensionless); of the first substance listed, at infinite dilution; xn = mol fraction of the nth substance listed
- CONDITION_SET: 318.15 K; Liquid; Chromatography; x1 = 0
Binning of activity coefficient into classes: low class (below 3), middle class (3 to below 10), high class (10 or more)

COMPOUND: CCCCO [butan-1-ol] + CCn1cc[n+](C)c1.N#C[B-](C#N)(C#N)C#N
CATEGORY: low class
//
COMPOUND: CCCCC(C)=O [2-hexanone] + CCn1cc[n+](C)c1.N#C[B-](C#N)(C#N)C#N
CATEGORY: low class
//
COMPOUND: CCCCCC [hexane] + CCn1cc[n+](C)c1.N#C[B-](C#N)(C#N)C#N
CATEGORY: high class
//
COMPOUND: CCCCCCCCCC [decane] + CCn1cc[n+](C)c1.N#C[B-](C#N)(C#N)C#N
CATEGORY: high class
//
COMPOUND: CCC(C)(C)OC [2-methoxy-2-methylbutane] + CCn1cc[n+](C)c1.N#C[B-](C#N)(C#N)C#N
CATEGORY: middle class

Prompt: Given c1ccsc1 [thiophene] + CCn1cc[n+](C)c1.N#C[B-](C#N)(C#N)C#N , name the class its activity coefficient places it in.
Response: low class

Prompt: Looking at C=CCCC [1-pentene] + CCn1cc[n+](C)c1.N#C[B-](C#N)(C#N)C#N , which class would you pick?
Response: middle class

====

- PROTOCOL_DETAILS: activity coefficient (dimensionless); of the first substance listed, at infinite dilution; xn = mol fraction of the nth substance listed
- CONDITION_SET: 338.15 K; Liquid; Chromatography; x1 = 0
Entries and their activity coefficient
Number only, no unit.

COMPOUND: CC(C)CC(C)(C)C [2,2,4-trimethylpentane] + CCn1cc[n+](C)c1.N#C[B-](C#N)(C#N)C#N
OBSERVED_VALUE: 42.3
--
COMPOUND: CCCCC(C)=O [2-hexanone] + CCn1cc[n+](C)c1.N#C[B-](C#N)(C#N)C#N
OBSERVED_VALUE: 1.16
--
COMPOUND: O [water] + CCn1cc[n+](C)c1.N#C[B-](C#N)(C#N)C#N
OBSERVED_VALUE: 1.51
--
COMPOUND: CCCC(=O)CC [3-hexanone] + CCn1cc[n+](C)c1.N#C[B-](C#N)(C#N)C#N
OBSERVED_VALUE: 1.25
--
COMPOUND: CC1CCCCC1 [methylcyclohexane] + CCn1cc[n+](C)c1.N#C[B-](C#N)(C#N)C#N
OBSERVED_VALUE: 18

Lab note: CCCC(C)=O [pentan-2-one] + CCn1cc[n+](C)c1.N#C[B-](C#N)(C#N)C#N gave activity coefficient of 0.861

Consider C=CCCCCC [1-heptene] + CCn1cc[n+](C)c1.N#C[B-](C#N)(C#N)C#N . Its measured activity coefficient is 17.3

compound C1CCCCC1 [cyclohexane] + CCn1cc[n+](C)c1.N#C[B-](C#N)(C#N)C#N , activity coefficient observed: 12.3

Form field activity coefficient, entry Cc1ccccc1C [1,2-dimethylbenzene] + CCn1cc[n+](C)c1.N#C[B-](C#N)(C#N)C#N : 2.22

Form field activity coefficient, entry CCc1ccccc1 [ethylbenzene] + CCn1cc[n+](C)c1.N#C[B-](C#N)(C#N)C#N : 2.61

Short answer for c1ccsc1 [thiophene] + CCn1cc[n+](C)c1.N#C[B-](C#N)(C#N)C#N : activity coefficient was 0.976

Measured activity coefficient of C#CCCCC [1-hexyne] + CCn1cc[n+](C)c1.N#C[B-](C#N)(C#N)C#N : 3.74
